# testedTarget: CYP2D6 (Homo sapiens, UniProt P10635)
# Sequence (P10635 whole entry): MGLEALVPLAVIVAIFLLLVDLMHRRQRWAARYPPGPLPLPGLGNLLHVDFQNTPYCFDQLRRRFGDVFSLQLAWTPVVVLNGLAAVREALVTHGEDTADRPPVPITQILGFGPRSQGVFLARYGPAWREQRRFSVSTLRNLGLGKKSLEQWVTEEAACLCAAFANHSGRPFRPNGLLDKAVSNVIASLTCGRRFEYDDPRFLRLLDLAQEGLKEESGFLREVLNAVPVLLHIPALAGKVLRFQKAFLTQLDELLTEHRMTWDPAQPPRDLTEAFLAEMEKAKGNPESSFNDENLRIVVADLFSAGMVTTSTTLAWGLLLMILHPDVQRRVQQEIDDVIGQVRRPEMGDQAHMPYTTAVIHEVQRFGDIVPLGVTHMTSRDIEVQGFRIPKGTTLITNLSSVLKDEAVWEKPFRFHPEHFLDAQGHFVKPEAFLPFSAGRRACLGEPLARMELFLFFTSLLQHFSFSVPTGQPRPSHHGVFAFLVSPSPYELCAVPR
# protocolSummary: bufuralol hydroxylation activity in human hepatic microsome
# conditionDescription: liver microsomes, pH 7.4, probe bufuralol (20 μM)
measuredMetric: activity at 3 μM (%)
Your answer is read as %, so omit the unit and give the number.

For reference, reported activity at 3 μM for C[C@]1(COc2ccc(N3CCC(Oc4ccc(OC(F)(F)F)cc4)CC3)cc2)Cn2cc([N+](=O)[O-])nc2O1 [Compound (A-R)] stands at 102

---

# testedTarget: CYP2A6 (Homo sapiens, UniProt P11509)
# Sequence (P11509 whole entry): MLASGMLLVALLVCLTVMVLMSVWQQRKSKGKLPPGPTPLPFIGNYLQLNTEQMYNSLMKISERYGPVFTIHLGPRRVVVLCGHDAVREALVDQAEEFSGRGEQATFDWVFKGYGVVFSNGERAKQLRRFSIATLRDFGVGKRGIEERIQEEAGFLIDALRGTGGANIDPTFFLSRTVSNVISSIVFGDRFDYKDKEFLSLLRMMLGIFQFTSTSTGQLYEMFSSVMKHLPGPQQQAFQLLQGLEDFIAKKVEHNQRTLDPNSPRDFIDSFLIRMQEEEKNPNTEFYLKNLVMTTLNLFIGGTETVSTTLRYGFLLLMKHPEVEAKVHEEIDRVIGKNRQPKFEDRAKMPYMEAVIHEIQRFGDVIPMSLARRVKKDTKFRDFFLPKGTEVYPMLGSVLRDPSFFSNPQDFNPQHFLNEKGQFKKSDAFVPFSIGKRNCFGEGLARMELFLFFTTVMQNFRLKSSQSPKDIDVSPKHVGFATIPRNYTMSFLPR
# protocolSummary: coumarin hydroxylation activity in human hepatic microsome
# conditionDescription: human, liver microsomes, pH 7.4, probe coumarin (2 μM), coumarin hydroxylation
measuredMetric: activity at 1 μM (%)
Your answer is read as %, so omit the unit and give the number.

For reference, reported activity at 1 μM for C[C@]1(COc2ccc(N3CCC(Oc4ccc(OC(F)(F)F)cc4)CC3)cc2)Cn2cc([N+](=O)[O-])nc2O1 [Compound (A-R)] stands at 103

---

# testedTarget: CYP2C19 (Homo sapiens, UniProt P33261)
# Sequence (P33261 whole entry): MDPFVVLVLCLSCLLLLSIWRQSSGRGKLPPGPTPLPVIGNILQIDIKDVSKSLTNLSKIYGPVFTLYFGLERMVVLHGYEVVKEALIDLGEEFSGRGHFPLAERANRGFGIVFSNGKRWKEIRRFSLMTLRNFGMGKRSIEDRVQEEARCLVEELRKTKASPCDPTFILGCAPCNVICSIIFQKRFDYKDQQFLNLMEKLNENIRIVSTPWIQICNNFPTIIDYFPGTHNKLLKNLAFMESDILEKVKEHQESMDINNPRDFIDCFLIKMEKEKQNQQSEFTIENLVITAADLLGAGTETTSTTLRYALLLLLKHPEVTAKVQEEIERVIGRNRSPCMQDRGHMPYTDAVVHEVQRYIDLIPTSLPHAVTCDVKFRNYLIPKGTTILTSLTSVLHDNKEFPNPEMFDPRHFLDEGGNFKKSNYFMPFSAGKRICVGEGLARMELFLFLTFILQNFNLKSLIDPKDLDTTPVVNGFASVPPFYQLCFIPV
# protocolSummary: S-mephenytoin hydroxylation activity in human hepatic microsome
# conditionDescription: liver microsomes, pH 7.4, probe S-mephenytoin (100 μM)
measuredMetric: activity at 10 μM (%)
Your answer is read as %, so omit the unit and give the number.

For reference, reported activity at 10 μM for `C[C@]1(COc2ccc(N3CCC(Oc4ccc(OC(F)(F)F)cc4)CC3)cc2)Cn2cc([N+](=O)[O-])nc2O1` stands at 113

---

# testedTarget: CYP2B6 (Homo sapiens, UniProt P20813)
# Sequence (P20813 whole entry): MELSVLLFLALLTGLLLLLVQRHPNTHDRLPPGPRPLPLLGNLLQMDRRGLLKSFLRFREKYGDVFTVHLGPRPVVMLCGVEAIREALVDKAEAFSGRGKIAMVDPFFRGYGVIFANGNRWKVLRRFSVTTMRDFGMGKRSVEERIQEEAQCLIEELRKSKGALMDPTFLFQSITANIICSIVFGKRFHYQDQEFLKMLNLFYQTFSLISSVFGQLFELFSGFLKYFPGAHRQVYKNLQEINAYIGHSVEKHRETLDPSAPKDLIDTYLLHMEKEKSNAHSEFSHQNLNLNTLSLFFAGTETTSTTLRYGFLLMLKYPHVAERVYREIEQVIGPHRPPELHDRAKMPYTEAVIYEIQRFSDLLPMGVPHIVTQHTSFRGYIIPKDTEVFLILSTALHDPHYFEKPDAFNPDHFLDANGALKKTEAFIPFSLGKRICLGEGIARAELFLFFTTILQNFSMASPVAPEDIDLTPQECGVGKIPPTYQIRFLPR
# protocolSummary: 7-benzyloxyresorufin debenzylation activity in human hepatic microsome
# conditionDescription: microsomes, pH 7.4
# Experimental: 4-2. Effect of the Oxazole Compound (I) on the Enzymatic Activity of Each Molecular Species of Cytochrome P450 (CYP) […] Generated products after the metabolic response were measured by using high performance liquid chromatography after extraction.
measuredMetric: activity at 30 μM

For reference, reported activity at 30 μM for C[C@]1(COc2ccc(N3CCC(Oc4ccc(OC(F)(F)F)cc4)CC3)cc2)Cn2cc([N+](=O)[O-])nc2O1 [Compound (A-R)] stands at 113%

---

# testedTarget: CYP2D6 (Homo sapiens, UniProt P10635)
# protocolSummary: bufuralol hydroxylation activity in human hepatic microsome
# conditionDescription: liver microsomes, pH 7.4, probe bufuralol (20 μM)
measuredMetric: activity at 30 μM (%)
Your answer is read as %, so omit the unit and give the number.

For reference, reported activity at 30 μM for C[C@]1(COc2ccc(N3CCC(Oc4ccc(OC(F)(F)F)cc4)CC3)cc2)Cn2cc([N+](=O)[O-])nc2O1 [Compound (A-R)] stands at 103

---

# Test system: CYP2C8/9
# protocolSummary: tolbutamide hydroxylation activity in human hepatic microsome
# conditionDescription: microsomes, pH 7.4
measuredMetric: activity at 30 μM (%)
Your answer is read as %, so omit the unit and give the number.

For reference, reported activity at 30 μM for C[C@]1(COc2ccc(N3CCC(Oc4ccc(OC(F)(F)F)cc4)CC3)cc2)Cn2cc([N+](=O)[O-])nc2O1 [Compound (A-R)] stands at 108

---

# Tested on: CYP2C8/9
# protocolSummary: tolbutamide hydroxylation activity in human hepatic microsome
# conditionDescription: liver microsomes, pH 7.4, probe tolbutamide (400 μM), hydroxylation
measuredMetric: activity at 100 μM (%)
Your answer is read as %, so omit the unit and give the number.

For reference, reported activity at 100 μM for O=c1c(O)c(-c2ccc(O)c(O)c2)oc2cc(O)cc(O)c12 [quercetin, reference compound] stands at 30.6

For reference, reported activity at 100 μM for Nc1ccc(S(=O)(=O)Nc2ccnn2-c2ccccc2)cc1 [sulfaphenazole, reference compound] stands at 25.5
